# studyTarget: isolated recombinant JAK2 kinase domain (Homo sapiens, UniProt O60674)
# Sequence (O60674 849-1124 limits assumed): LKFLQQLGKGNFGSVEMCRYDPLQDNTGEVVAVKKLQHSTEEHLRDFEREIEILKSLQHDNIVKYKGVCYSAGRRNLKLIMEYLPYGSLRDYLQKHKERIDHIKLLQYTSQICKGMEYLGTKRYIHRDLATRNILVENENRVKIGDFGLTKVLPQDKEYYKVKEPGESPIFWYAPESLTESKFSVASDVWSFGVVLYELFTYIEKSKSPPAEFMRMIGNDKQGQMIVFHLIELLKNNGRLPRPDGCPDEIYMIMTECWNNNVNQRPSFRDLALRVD
# methodSummary: JAK enzyme assay (Caliper LabChip), JAK2 kinase domain
# measurementConditions: ATP 25 μM, 0.2 nM JAK2, Morrison tight binding model
Property: Ki; scope: individual compounds
readoutKind: Ki (nM)

1. CC[C@H](O)Cn1cc(NC(=O)c2cnn3cccnc23)c(-c2cc(SC)ccc2OC(F)F)n1 (racemic); 0.25
2. CN1CCCC(Sc2ccc(OC(F)F)c(-c3n[nH]cc3NC(=O)c3cnn4cccnc34)c2)C1 (single isomer, unassigned) [Example 38]; 1.38
3. CSc1ccc(OC(F)F)c(-c2nn(CC(=O)N3CCCCC3)cc2NC(=O)c2cnn3cccnc23)c1; 0.39
4. O=C(Nc1c[nH]nc1-c1cc(SC2CCCNC2)ccc1OC(F)F)c1cnn2cccnc12 (single isomer, unassigned) [Example 36]; 51.7
5. CN1CCCC(Sc2ccc(OC(F)F)c(-c3n[nH]cc3NC(=O)c3cnn4cccnc34)c2)C1 (single isomer, unassigned) [Example 31]; 3.47
6. O=C(Nc1c[nH]nc1-c1cc(SC2CCCCC2)ccc1OC(F)F)c1cnn2cccnc12; 0.28
7. O=C(Nc1cn(C2CN(C3COC3)C2)nc1-c1cc(SC2COC2)ccc1OC(F)F)c1cnn2cccnc12; 0.9
